From: PubChem BioAssay AID720706

- Method notes: GFP drop in mixed WT/humanized-ribosome E. coli culture – GFP/RFP fluorescence, OD600, single point, bacterial rRNA inhibitor project, primary screen (AID 720706)
- Condition notes: E. coli WT GFP vs humanized-ribosome RFP mutants, 24 h; measured here: RFP humanized mutant strains, DMSO median 0, no signal -100, concentration not given here
Screen size: about 350,000 compounds; about 5,500 (1.6%) were called active. The sample as a whole holds a higher share of actives than the screen did.
Readout name: RFP signal change (%)

molecule=COc1ccc2c3c(n(C)c2c1)[C@@H](CO)NCC31CN(S(=O)(=O)c2cccc(C)c2)C1 readout_name="RFP signal change" result_value=1.9
molecule=CCC(=O)N(C)C[C@@H]1Oc2ncc(-c3ccccc3OC)cc2C(=O)N([C@@H](C)CO)C[C@@H]1C readout_name="RFP signal change" result_value=1.16
molecule=C[C@H](CO)N1C[C@H](C)[C@@H](CN(C)C(=O)Nc2cccc(F)c2)OCc2ccccc2-c2ccccc2C1=O readout_name="RFP signal change" result_value=0.291
molecule=CO[C@@H]1CN(C)C(=O)c2ccc(NC(C)=O)cc2OC[C@@H](C)N(CC2CC2)C[C@H]1C readout_name="RFP signal change" result_value=1.24
molecule=CSc1ccccc1OCc1cc(C(=O)N(C)CCc2c(C)n[nH]c2C)no1 readout_name="RFP signal change" result_value=-4.44
molecule=COCC(=O)Nc1ccc2c(c1)C(=O)N(C)[C@H]1CC[C@@H](CC(=O)NCc3cccc(F)c3)O[C@H]1CO2 readout_name="RFP signal change" result_value=1.53
molecule=COc1cc(Cl)ccc1OCc1cc(C(=O)N(C)CCc2c(C)n[nH]c2C)no1 readout_name="RFP signal change" result_value=4.51
molecule=CC(C)CNc1ncnc2c1cnn2Cc1ccc(Cl)cc1 readout_name="RFP signal change" result_value=-0.858
molecule=O=S1(=O)c2ccc(Br)cc2-n2nncc2CN1Cc1cccc(Cl)c1 readout_name="RFP signal change" result_value=-5.12
molecule=O=C(O)c1ccc(N/N=C/c2cn(-c3ccccc3)nc2-c2cccs2)cc1 readout_name="RFP signal change" result_value=-5.29
molecule=O=C(/C=C\c1cn(-c2ccccc2)nc1-c1cccs1)N1CCOCC1 readout_name="RFP signal change" result_value=-10.9
molecule=O=C(Cn1cc(/C=N/NC(=O)c2cccc(C(F)(F)F)c2)c2ccccc21)Nc1ccc(F)cc1 readout_name="RFP signal change" result_value=-3.15
molecule=O=C1N[C@H](Cc2ccccc2)COCc2cn(nn2)CC[C@@H]1Cc1ccc(-c2ccccc2)cc1 readout_name="RFP signal change" result_value=-4.54
molecule=O=C(NNC(=S)Nc1ccc(Br)cc1Cl)c1ccco1 readout_name="RFP signal change" result_value=-26.1
molecule=CCCNC(=O)N1[C@H](CO)[C@H]2c3ccccc3N(C(=O)Nc3cccc(Cl)c3)C[C@H]21 readout_name="RFP signal change" result_value=-12.8
molecule="CC1CCCCC12NC(=O)N(CC(=O)OCC(=O)NCc1ccc(F)cc1)C2=O (centres undefined)" readout_name="RFP signal change" result_value=-1.07
molecule="COc1cccc(CNC(=O)COC(=O)CN2C(=O)NC3(CCCCC3C)C2=O)c1 (centres undefined)" readout_name="RFP signal change" result_value=0.493
molecule=C[C@H]1CCCCO[C@H](CN(C)S(=O)(=O)c2ccc(Cl)cc2)[C@@H](C)CN([C@@H](C)CO)C(=O)c2cc(NC(=O)Nc3ccc4c(c3)OCO4)ccc2O1 readout_name="RFP signal change" result_value=-3.19
molecule=CCn1ccnc1CN(C)C(=O)c1cc(COc2ccc(Cl)cc2OC)on1 readout_name="RFP signal change" result_value=-1.68
